These entries and their values trace back to patent US11020398B2.

target: UniProt Q06187
pIC50: −log10 of the molar value.

| Molecule | pIC50 |
| --- | --- |
| Cc1cc(Oc2ccccc2)ccc1C(=O)c1c[nH]c2ncnc(N[C@@H]3CC[C@@H]([C@@H](C)O)OC3)c12 | 8.80 |
| C[C@H](O)C(=O)NC[C@@H]1CC[C@@H](Nc2ncnc3[nH]cc(C(=O)c4ccc(Oc5ccccc5)cc4Cl)c23)CO1 | 8.72 |
| C[C@H](NC(=O)[C@@H](C)O)[C@@H]1CC[C@@H](Nc2ncnc3[nH]cc(C(=O)c4ccc(Oc5ccccc5)cc4Cl)c23)CO1 | 8.60 |
| CC(O)CCCCCC(=O)N[C@H]1CC[C@@H](Nc2ncnc3[nH]cc(C(=O)c4ccc(Oc5ccccc5)cc4Cl)c23)CC1 (mixture of isomers) | 8.13 |
| C[C@H](NC(=O)[C@@H](C)O)[C@@H]1CC[C@@H](Nc2ncnc3[nH]cc(C(=O)c4ccc(Oc5ccccc5)cc4)c23)CO1 | 8.41 |
| CC1(N)CN([C@H]2CC[C@H](Nc3ncnc4[nH]cc(C(=O)c5ccccc5Cl)c34)CC2)C1 | 7.64 |
| CC1(O)CN([C@H]2CC[C@H](Nc3ncnc4[nH]cc(C(=O)c5ccccc5Cl)c34)CC2)C1 | 7.74 |

---

target: phosphorylated form of full length BTK (active BTK) (Homo sapiens (Human))
Measure: log10 of IC50 (log10 of the value in nM)

| Chem smiles | Readout value |
| --- | --- |
| N[C@H]1C[C@H](Nc2ncnc3[nH]cc(C(=O)c4ccc(Oc5ccccc5)cc4)c23)C1 | 1.57 |
| COC[C@]1(O)CC[C@@H](Nc2ncnc3[nH]cc(C(=O)c4ccccc4Cl)c23)CC1 | 0.85 |
| CN(C)C[C@]1(O)CC[C@@H](Nc2ncnc3[nH]cc(C(=O)c4ccc(Oc5ccccc5)cc4Cl)c23)CC1 | 0.34 |
| CC(=O)N[C@@H](C)[C@@H]1CC[C@@H](Nc2ncnc3[nH]cc(C(=O)c4ccc(Oc5ccccc5)cc4)c23)CO1 | 0.41 |
| CC(=O)NC[C@@H]1CC[C@@H](Nc2ncnc3[nH]cc(C(=O)c4ccc(Oc5ccccc5)cc4)c23)CO1 | 0.20 |
| COC1CN([C@H]2CC[C@@H](Nc3ncnc4[nH]cc(C(=O)c5ccccc5Cl)c34)CC2)C1 | 0.51 |
| CC(=O)N[C@@H](C)[C@@H]1CC[C@@H](Nc2ncnc3[nH]cc(C(=O)c4ccc(Oc5ccccc5)cc4C)c23)CO1 | 0.04 |

---

biological target: full-length activated BTK mutant C481S (Homo sapiens (Human), UniProt Q06187, C481S); assay: AlphaScreen assay, BTK mutant C481S
Sequence (Q06187 whole entry C481S): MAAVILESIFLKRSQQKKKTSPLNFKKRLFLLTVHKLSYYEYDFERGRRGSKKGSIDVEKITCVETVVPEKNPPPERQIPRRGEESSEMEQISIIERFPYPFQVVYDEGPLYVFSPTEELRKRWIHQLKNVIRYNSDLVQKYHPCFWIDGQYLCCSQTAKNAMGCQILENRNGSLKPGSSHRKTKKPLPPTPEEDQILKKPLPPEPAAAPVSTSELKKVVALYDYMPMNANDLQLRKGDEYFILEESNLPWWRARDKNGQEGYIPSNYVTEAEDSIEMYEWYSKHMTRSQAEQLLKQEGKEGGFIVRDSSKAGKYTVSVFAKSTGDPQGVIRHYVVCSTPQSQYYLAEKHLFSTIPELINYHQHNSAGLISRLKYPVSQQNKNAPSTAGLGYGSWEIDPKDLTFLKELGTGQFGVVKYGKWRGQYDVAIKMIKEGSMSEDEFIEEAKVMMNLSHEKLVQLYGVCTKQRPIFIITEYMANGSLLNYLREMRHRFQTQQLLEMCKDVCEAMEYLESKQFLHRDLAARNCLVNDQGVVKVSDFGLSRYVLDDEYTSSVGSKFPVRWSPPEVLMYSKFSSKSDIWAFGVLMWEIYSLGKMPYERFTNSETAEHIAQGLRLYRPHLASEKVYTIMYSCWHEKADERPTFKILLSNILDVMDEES
pIC50: −log10 of the molar value.
pIC50 listing for selected compounds.

| Compound | pIC50 |
| --- | --- |
| CNC(=O)c1cccc(Oc2ccc(C(=O)c3c[nH]c4ncnc(N[C@@H]5CC[C@@H](CO)OC5)c34)cc2)n1 | 7.20 |
| CNC(=O)c1cccc(Oc2ccc(C(=O)c3c[nH]c4ncnc(N[C@@H]5CC[C@@H](CO)OC5)c34)c(Cl)c2)n1 | 6.90 |
| CN1C[C@H](CNc2ncnc3[nH]cc(C(=O)c4ccc(Oc5ccccc5)cc4Cl)c23)C[C@H]1CO [Compound I-370e] | 7.30 |
| O=C(c1ccc(Oc2ccccc2)cc1Cl)c1c[nH]c2ncnc(NC[C@H]3CN[C@H](CO)C3)c12 [Compound I-369e] | 6.86 |
| N#Cc1cccc(NC(=O)c2ccc(Cl)c(C(=O)c3c[nH]c4ncnc(N[C@@H]5CC[C@@H](CO)OC5)c34)c2)c1 | 6.72 |
| C=CS(=O)(=O)N1CCCC(Nc2ncnc3[nH]cc(C(=O)c4ccc(Oc5ccccc5)cc4Cl)c23)C1 (racemic) [Compound I-322r] | 7.01 |
| O=C(NCc1ccccc1)c1ccc(C(=O)c2c[nH]c3ncnc(N[C@@H]4CC[C@@H](CO)OC4)c23)c(Cl)c1 | 6.40 |
| O=C(c1ccc(N2CC3(COC3)C2)cc1Cl)c1c[nH]c2ncnc(N[C@@H]3CC[C@@H](CO)OC3)c12 | 6.97 |
| O=C(c1ccc(C(=O)N2CCN(c3ccccn3)CC2)cc1Cl)c1c[nH]c2ncnc(N[C@@H]3CC[C@@H](CO)OC3)c12 | 6.30 |
| O=C(c1ccc(N2CCCCC2)cc1Cl)c1c[nH]c2ncnc(N[C@@H]3CC[C@@H](CO)OC3)c12 | 6.11 |
| COCCOc1ccc(C(=O)c2c[nH]c3ncnc(N[C@@H]4CC[C@@H](CO)OC4)c23)c(Cl)c1 [Compound I-317i] | 6.81 |
| O=C(c1cc(NC(=O)C2CCOCC2)ccc1Cl)c1c[nH]c2ncnc(N[C@@H]3CC[C@@H](CO)OC3)c12 | 5.75 |
| CS(=O)(=O)N1CC(Nc2ncnc3[nH]cc(C(=O)c4ccc(Oc5ccccc5)cc4Cl)c23)CCC1CO (racemic) | 7.41 |
| O=C(Nc1ccccc1)c1cccc(C(=O)c2c[nH]c3ncnc(N[C@@H]4CC[C@@H](CO)OC4)c23)c1 | 6.16 |
| O=C(c1ccc(Oc2ccccc2)cc1Cl)c1c[nH]c2ncnc(NC3CCC(CO)NC3)c12 (racemic) [Compound I-343r] | 7.47 |
| O=C(Nc1cccnc1)c1ccc(C(=O)c2c[nH]c3ncnc(N[C@@H]4CC[C@@H](CO)OC4)c23)c(Cl)c1 | 6.50 |
| O=C(Nc1ccncc1)c1ccc(C(=O)c2c[nH]c3ncnc(N[C@@H]4CC[C@@H](CO)OC4)c23)c(Cl)c1 | 6.29 |
| O=C(c1cc(C(=O)N2CCCCC2)ccc1Cl)c1c[nH]c2ncnc(N[C@@H]3CC[C@@H](CO)OC3)c12 | 6.73 |
| O=C(Nc1ccc(Cl)c(C(=O)c2c[nH]c3ncnc(N[C@@H]4CC[C@@H](CO)OC4)c23)c1)c1cc2c(cn1)CCCC2 | 7.25 |
| O=C(Nc1ccc(Cl)c(C(=O)c2c[nH]c3ncnc(N[C@@H]4CC[C@@H](CO)OC4)c23)c1)c1cncs1 | 6.14 |
| O=C(c1ccc(Oc2ccccc2)cc1Cl)c1c[nH]c2ncnc(NC[C@H]3CCC[C@@H](CO)N3)c12 (racemic) [Compound I-359e] | 6.91 |
| CN1C[C@H](Nc2ncnc3[nH]cc(C(=O)c4ccc(Oc5ccccc5)cc4Cl)c23)C[C@H]1CO [Compound I-342e] | 7.48 |
| O=C(c1cc(NC(=O)C2(c3ccccc3)CC2)ccc1Cl)c1c[nH]c2ncnc(N[C@@H]3CC[C@@H](CO)OC3)c12 | 5.73 |
| O=C(c1ccc(Oc2ccccc2)cc1Cl)c1c[nH]c2ncnc(NC[C@H]3CC[C@@H](CO)O3)c12 [Compound I-362e] | 7.35 |
| O=C(c1ccc(C(=O)N2CCCCC2)cc1Cl)c1c[nH]c2ncnc(N[C@@H]3CC[C@@H](CO)OC3)c12 | 7.31 |
| COCCOc1ccc(C(=O)c2c[nH]c3ncnc(N[C@@H]4CC[C@@H](CO)OC4)c23)cc1 [Compound I-318i] | 6.15 |
| O=C(Nc1cccc(C(=O)c2c[nH]c3ncnc(N[C@@H]4CC[C@@H](CO)OC4)c23)c1)c1ccccc1 | 6.69 |

---

IC50 listing for selected molecules.
target: full-length activated BTK (wildtype) (Homo sapiens (Human), UniProt Q06187); experiment: AlphaScreen assay, wild-type BTK
Sequence (Q06187 whole entry): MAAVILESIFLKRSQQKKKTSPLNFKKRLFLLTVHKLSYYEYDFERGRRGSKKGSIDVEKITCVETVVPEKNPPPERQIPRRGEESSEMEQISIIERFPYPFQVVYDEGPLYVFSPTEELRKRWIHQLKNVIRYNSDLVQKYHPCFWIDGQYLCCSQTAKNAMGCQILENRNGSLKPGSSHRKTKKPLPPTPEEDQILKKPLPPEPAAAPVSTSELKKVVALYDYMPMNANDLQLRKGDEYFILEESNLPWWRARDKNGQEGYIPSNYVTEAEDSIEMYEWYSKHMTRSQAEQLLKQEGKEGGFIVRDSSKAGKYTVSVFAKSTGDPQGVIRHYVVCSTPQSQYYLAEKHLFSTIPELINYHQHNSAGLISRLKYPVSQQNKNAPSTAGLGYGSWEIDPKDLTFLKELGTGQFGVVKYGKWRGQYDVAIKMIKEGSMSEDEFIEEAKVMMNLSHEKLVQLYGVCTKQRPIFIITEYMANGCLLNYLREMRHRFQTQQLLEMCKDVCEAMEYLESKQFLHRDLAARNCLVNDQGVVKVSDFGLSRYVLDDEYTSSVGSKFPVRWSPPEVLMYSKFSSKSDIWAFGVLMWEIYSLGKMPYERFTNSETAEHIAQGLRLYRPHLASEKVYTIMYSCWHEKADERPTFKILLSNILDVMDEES

| Molecule | IC50 (µM) |
| --- | --- |
| O=C(c1cc(C(=O)N2CCN(c3ccccn3)CC2)ccc1Cl)c1c[nH]c2ncnc(N[C@@H]3CC[C@@H](CO)OC3)c12 | 0.777 |
| COCCOc1cccc(C(=O)c2c[nH]c3ncnc(N[C@@H]4CC[C@@H](CO)OC4)c23)c1 | 0.959 |
| O=C(c1cc(NC(=O)C2(c3ccccc3)CC2)ccc1Cl)c1c[nH]c2ncnc(N[C@@H]3CC[C@@H](CO)OC3)c12 | 0.467 |
| O=C(Nc1cccnc1)Nc1ccc(Cl)c(C(=O)c2c[nH]c3ncnc(N[C@@H]4CC[C@@H](CO)OC4)c23)c1 | 0.114 |
| O=C(c1ccc(Oc2ccccc2)cc1Cl)c1c[nH]c2ncnc(NC[C@H]3CN[C@H](CO)C3)c12 [Compound I-369e] | 0.0198 |
| O=C(Nc1ccncc1)c1ccc(C(=O)c2c[nH]c3ncnc(N[C@@H]4CC[C@@H](CO)OC4)c23)c(Cl)c1 | 0.103 |
| O=C(NCCN1CCOCC1)c1ccc(Cl)c(C(=O)c2c[nH]c3ncnc(N[C@@H]4CC[C@@H](CO)OC4)c23)c1 | 0.164 |
| O=C(c1ccc(Oc2ccccc2)cc1Cl)c1c[nH]c2ncnc(N[C@H]3CN[C@H](CO)C3)c12 [Compound I-345e] | 0.0101 |
| O=C(Nc1ccccc1)c1ccc(Cl)c(C(=O)c2c[nH]c3ncnc(N[C@@H]4CC[C@@H](CO)OC4)c23)c1 | 0.0521 |
| C=CS(=O)(=O)N1CCCC1CNc1ncnc2[nH]cc(C(=O)c3ccc(Oc4ccccc4)cc3Cl)c12 (racemic) [Compound I-326r] | 0.00433 |
| O=C(c1ccc(C(=O)N2CCN(c3ccccn3)CC2)cc1Cl)c1c[nH]c2ncnc(N[C@@H]3CC[C@@H](CO)OC3)c12 | 0.116 |
| Cn1cc(NC(=O)c2ccc(C(=O)c3c[nH]c4ncnc(N[C@@H]5CC[C@@H](CO)OC5)c34)c(Cl)c2)cn1 | 0.376 |
| O=C(c1ccc(C(=O)N2CCc3ccccc3C2)cc1Cl)c1c[nH]c2ncnc(N[C@@H]3CC[C@@H](CO)OC3)c12 | 0.0864 |
